# System: OVCAR-4
# test-protocol: Growth inhibition of human OVCAR4 cells at 10 uM after 48 hrs by coulter counter analysis
# Assay type: functional
# recorded-conditions: OVCAR-4, 48 h, read-out: GI
I'd appreciate it if you could supply inhibition of growth at 10 µM values for the items below.

Query string: Which inhibition of growth at 10 µM is reported for this compound? Cc1cnc(NC(=O)CN2CCN(C)CC2)s1
Result string: < 10%

Query string: Reported inhibition of growth at 10 µM, compound O=C(CCCl)Nc1nc(-c2ccccc2)cs1 : ____
Result string: 24.8%

Query string: I have this compound here, Cc1csc(NC(=O)C(C)N2CCN(C)CC2)n1 (stereo not given) , and I need its recorded inhibition of growth at 10 µM.
Result string: 16.2%

Query string: # lookup: inhibition of growth at 10 µM of CCOC(=O)c1sc(NC(=O)CCN2CCOCC2)nc1C
Result string: < 10%

Query string: Requested field: inhibition of growth at 10 µM. Item: CCOC(=O)c1sc(NC(=O)C(C)N2CCOCC2)nc1C (stereo not given)
Result string: < 10%

Query string: Reported inhibition of growth at 10 µM for CCOC(=O)c1sc(NC(=O)CCN2CCN(c3ccccc3)CC2)nc1C : what is it?
Result string: < 10%

Query string: Recorded inhibition of growth at 10 µM for Cc1csc(NC(=O)C(C)N2CCN(c3ccccc3)CC2)n1 (stereo not given) , please?
Result string: < 10%

Query string: What value of inhibition of growth at 10 µM has been reported for the following compound? CN1CCN(CCC(=O)Nc2nc(-c3ccccc3)cs2)CC1
Result string: < 10%

Query string: Value lookup for inhibition of growth at 10 µM; key = O=C(CN1CCN(c2ccccc2)CC1)Nc1nc(-c2ccccc2)cs1
Result string: < 10%

Query string: Any idea what its inhibition of growth at 10 µM is? The compound is O=C(CCN1CCN(c2ccccc2)CC1)Nc1nc(-c2ccccc2)cs1
Result string: 36.2%

---

# System: MOLT-4
# test-protocol: Growth inhibition of human MOLT4 cells at 10 uM after 48 hrs by coulter counter analysis
# Assay type: functional
# recorded-conditions: MOLT-4, 48 h, read-out: GI
Give inhibition of growth at 10 µM for every item shown.

Query string: Any idea what inhibition of growth at 10 µM was measured for CCOC(=O)c1sc(NC(=O)C(C)N2CCN(C)CC2)nc1C (centres undefined) ?
Result string: < 10%

Query string: What value of inhibition of growth at 10 µM has been recorded for this entry: Cc1cnc(NC(=O)CN2CCN(C)CC2)s1
Result string: < 10%

Query string: Recorded inhibition of growth at 10 µM of CCOC(=O)c1sc(NC(=O)CN(C)C)nc1C , please.
Result string: < 10%

Query string: What value of inhibition of growth at 10 µM has been recorded for this entry: O=C(CCN1CCN(c2ccccc2)CC1)Nc1nc(-c2ccccc2)cs1
Result string: 37.9%

---

# Test system: MDA-MB-435
# test-protocol: Growth inhibition of human MDA-MB-435 cells at 10 uM after 48 hrs by coulter counter analysis
# Format: functional
# recorded-conditions: MDA-MB-435, 48 h, read-out: GI
Please provide measured inhibition of growth at 10 µM for the entries that follow.

Query string: Value lookup for inhibition of growth at 10 µM; key = Cc1cnc(NC(=O)CN2CCN(C)CC2)s1
Result string: < 10%

Query string: # inhibition of growth at 10 µM lookup, item CCOC(=O)c1sc(NC(=O)C(C)N2CCOCC2)nc1C (stereo unspecified)
Result string: < 10%

Query string: For O=C(CCN1CCN(c2ccccc2)CC1)Nc1nc(-c2ccccc2)cs1 , what is its reported inhibition of growth at 10 µM?
Result string: 13.4%

Query string: Requested field: inhibition of growth at 10 µM. Item: Cc1cnc(NC(=O)CCN2CCN(c3ccccc3)CC2)s1
Result string: < 10%

Query string: Name the reported inhibition of growth at 10 µM value associated with the compound CCOC(=O)c1sc(NC(=O)CCN2CCOCC2)nc1C
Result string: < 10%

Query string: Would you mind telling me what inhibition of growth at 10 µM value was observed for CCOC(=O)c1sc(NC(=O)CN(C)C)nc1C ?
Result string: < 10%

---

Give measured inhibition of growth at 10 µM for each item. Keep answers brief.
# Test system: 786-0
# test-protocol: Growth inhibition of human 786-0 cells at 10 uM after 48 hrs by coulter counter analysis
# Type: functional
# recorded-conditions: 786-0, 48 h, read-out: GI

Query string: Return inhibition of growth at 10 µM measured with 786-0 given this compound: CCOC(=O)c1sc(NC(=O)C(C)N2CCN(C)CC2)nc1C (stereo not drawn)
Result string: < 10%

Query string: Field: inhibition of growth at 10 µM (786-0). Entry: CCOC(=O)c1sc(NC(=O)CN(C)C)nc1C
Result string: < 10%

Query string: Which measured inhibition of growth at 10 µM belongs to Cc1csc(NC(=O)C(C)N2CCN(c3ccccc3)CC2)n1 (stereo not drawn) , tested on 786-0?
Result string: < 10%

---

Could you please report measured inhibition of growth at 10 µM for the items listed next?
# Tested on: OVCAR-8
# test-protocol: Growth inhibition of human OVCAR8 cells at 10 uM after 48 hrs by coulter counter analysis
# Assay type: functional
# recorded-conditions: OVCAR-8, 48 h, read-out: GI

Query string: Any idea what inhibition of growth at 10 µM came out for O=C(CN1CCN(c2ccccc2)CC1)Nc1nc(-c2ccccc2)cs1 on OVCAR-8?
Result string: < 10%

Query string: # query: inhibition of growth at 10 µM | item O=C(CCCl)Nc1nc(-c2ccccc2)cs1 | system: OVCAR-8
Result string: 56.1%

Query string: Form: Entry = CCOC(=O)c1sc(NC(=O)CCN2CCN(c3ccccc3)CC2)nc1C | System = OVCAR-8 | inhibition of growth at 10 µM = ____
Result string: < 10%

---

Could you please report measured inhibition of growth at 10 µM for the items listed next?
# System: LOX IMVI
# test-protocol: Growth inhibition of human LOXIMVI cells at 10 uM after 48 hrs by coulter counter analysis
# Format: functional
# recorded-conditions: read-out: GI
Field format: number, assumed %, no unit text.

Query string: Sample O=C(CCCl)Nc1nc(-c2ccccc2)cs1 — what was its inhibition of growth at 10 µM?
Result string: 47.8

Query string: Please report the recorded inhibition of growth at 10 µM for O=C(CN1CCN(c2ccccc2)CC1)Nc1nc(-c2ccccc2)cs1 .
Result string: 11.5

Query string: For CCOC(=O)c1sc(NC(=O)CCN2CCN(C)CC2)nc1C , what is its reported inhibition of growth at 10 µM?
Result string: 15.5

Query string: What measured inhibition of growth at 10 µM goes with CN1CCN(CCC(=O)Nc2nc(-c3ccccc3)cs2)CC1 ?
Result string: 11.1

---

So I've got a bunch of compounds here, and I need their inhibition of growth at 10 µM values.
# Test system: A549
# test-protocol: Growth inhibition of human A549/ATCC cells at 10 uM after 48 hrs by coulter counter analysis
# Assay type: functional
# recorded-conditions: A549, 48 h, read-out: GI

Query string: What value of measured inhibition of growth at 10 µM is listed for CCOC(=O)c1sc(NC(=O)C(C)N2CCOCC2)nc1C (stereo not drawn) ?
Result string: < 10%

Query string: Field request: inhibition of growth at 10 µM | item: CCOC(=O)c1sc(NC(=O)C(C)N2CCCCC2)nc1C (stereo not drawn)
Result string: < 10%

Query string: Dear colleague, I am looking for the recorded inhibition of growth at 10 µM of the following compound: Cc1csc(NC(=O)C(C)N2CCN(C)CC2)n1 (stereo not drawn)
Result string: < 10%

Query string: Reported inhibition of growth at 10 µM for CC(C(=O)Nc1nccs1)N1CCN(C)CC1 (stereo not drawn) : what is it?
Result string: < 10%

Query string: Can you look up the measured inhibition of growth at 10 µM of CCOC(=O)c1sc(NC(=O)CN(C)C)nc1C for me?
Result string: < 10%

Query string: Suppose we examine the compound O=C(CN1CCN(c2ccccc2)CC1)Nc1nc(-c2ccccc2)cs1 ; what inhibition of growth at 10 µM value has been reported?
Result string: 17.6%

Query string: Tell me the measured inhibition of growth at 10 µM of O=C(CCCl)Nc1nc(-c2ccccc2)cs1 , please.
Result string: 53.1%

Query string: Param item = CCOC(=O)c1sc(NC(=O)CCN2CCN(C)CC2)nc1C ; retrieve measured inhibition of growth at 10 µM.
Result string: < 10%

Query string: I am curious: what inhibition of growth at 10 µM value has been reported for CCOC(=O)c1sc(NC(=O)CCN2CCOCC2)nc1C ?
Result string: < 10%

Query string: What measured inhibition of growth at 10 µM goes with Cc1csc(NC(=O)C(C)N2CCN(c3ccccc3)CC2)n1 (stereo not drawn) ?
Result string: < 10%

Query string: So what does the record say about inhibition of growth at 10 µM for O=C(CCN1CCN(c2ccccc2)CC1)Nc1nc(-c2ccccc2)cs1 ?
Result string: 17.9%

Query string: Item CCOC(=O)c1sc(NC(=O)C(C)N(CC)CC)nc1C (stereo not drawn) has what recorded inhibition of growth at 10 µM?
Result string: < 10%

Query string: Using the record for Cc1cnc(NC(=O)CN2CCN(C)CC2)s1 , report its inhibition of growth at 10 µM.
Result string: < 10%

Query string: Recorded inhibition of growth at 10 µM of CC(C(=O)Nc1nccs1)N1CCN(c2ccccc2)CC1 (stereo not drawn) , please.
Result string: < 10%

Query string: For Cc1cnc(NC(=O)CCN2CCN(c3ccccc3)CC2)s1 , what is its reported inhibition of growth at 10 µM?
Result string: < 10%

Query string: Need inhibition of growth at 10 µM, item CN1CCN(CCC(=O)Nc2nc(-c3ccccc3)cs2)CC1
Result string: < 10%

Query string: Field request: inhibition of growth at 10 µM | item: Cc1cnc(NC(=O)CN2CCN(c3ccccc3)CC2)s1
Result string: < 10%

Query string: Entry CCOC(=O)c1sc(NC(=O)C(C)N2CCN(C)CC2)nc1C (stereo not drawn) : reported inhibition of growth at 10 µM = ?
Result string: < 10%
